Task for the reader: assign each of the following compounds its reported activity change, negative = inhibition.
test: AP1 Signaling Pathway (AID 357);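 note: ME-180 reporter cells stimulated with EGF at its EC50 level; % is set by controls: 0 for no effect and ±100 for the full control effect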
measurement.context: ME-180 (cervical carcinoma) AP-1-bla reporter, EGF-induced, beta-lactamase ratio, 5 h; at 7.69 µM (top of the series) unless noted
Inconclusive results are not listed. The source made the active and inactive calls. Calls come from the whole dose curve; as a rule, active = well fitted curve in either direction with a large enough effect (not every such curve was filed as active); inconclusive = small, poorly fitted or top-dose-only effect, or another doubt; inactive = flat fitted curve, though single readings scatter.

Qu. Given C[C@](O)(c1ccccc1)c1nccc2ccccc12 , state its recorded activity change, negative = inhibition.
Ans. -0.483% (inactive)

Qu. Given BrC(c1cccc2ccccc12)c1cccc2ccccc12 , state its recorded activity change, negative = inhibition.
Ans. 0.329% (inactive)

Qu. Given O=C(CCN1CCOCC1)Nc1ccc(F)cc1F , state its recorded activity change, negative = inhibition.
Ans. -2.63% (inactive)

Qu. Given O=C(O)/C=C\C(=O)Nc1ncn[nH]1 , state its recorded activity change, negative = inhibition.
Ans. 8.44% (inactive)

Qu. Given Cc1ccc2nc(N/N=C\c3cccc(C)n3)cc(C)c2c1 , state its recorded activity change, negative = inhibition.
Ans. -4.58% (inactive)

Qu. Given O=[N+]([O-])c1cc(Cl)cc2c1nc(NCCO)c1ccccc12 , state its recorded activity change, negative = inhibition.
Ans. -24% (inactive)

Qu. Given N[C@H](CCC(=O)NCS(=O)(=O)O)C(=O)O , state its recorded activity change, negative = inhibition.
Ans. 3.52% [at 38 µM] (inactive)

Qu. Given CC(C)Oc1cc(O)c2c(c1)OCC=C2CCC(=O)O , state its recorded activity change, negative = inhibition.
Ans. 0.742% (inactive)

Qu. Given CN(C)c1ccc(/C=N\NC(=O)c2cnc3ccccc3c2)cc1 , state its recorded activity change, negative = inhibition.
Ans. -12.8% (inactive)

Qu. Given CN(C)c1ccc(-c2nc(Nc3ccncc3)c3ccccc3n2)cc1 , state its recorded activity change, negative = inhibition.
Ans. -10.7% (inactive)

Qu. Given Clc1nc(NCCc2ccccc2)c2ncn(-c3ccccc3)c2n1 , state its recorded activity change, negative = inhibition.
Ans. -9.15% (inactive)

Qu. Given NC(=O)N/N=C1\CC[C@H](O)C[C@@H]1CC(=O)O , state its recorded activity change, negative = inhibition.
Ans. 11.5% (inactive)

Qu. Given O=C(O)c1cccc(C[C@H](Br)C(=O)O)c1 , state its recorded activity change, negative = inhibition.
Ans. 3.81% (inactive)

Qu. Given NC(=O)c1ncn([C@@H]2O[C@@H](CO)[C@@H](O)[C@H]2O)c1O , state its recorded activity change, negative = inhibition.
Ans. 15.7% [at 38 µM] (inactive)

Qu. Given CN(C)CCNS(=O)(=O)N(C)C , state its recorded activity change, negative = inhibition.
Ans. -0.375% (inactive)

Qu. Given COc1ccccc1OC[C@H](O)CN1CCN(CC(=O)Nc2c(C)cccc2C)CC1 , state its recorded activity change, negative = inhibition.
Ans. -8.83% [at 38 µM] (inactive)

Qu. Given Nc1nc(-c2ccc3ccccc3c2)cc(-c2cc(-c3ccc4ccccc4c3)nc(N)n2)n1 , state its recorded activity change, negative = inhibition.
Ans. -3.27% (inactive)

Qu. Given Cc1cccc(C)c1NC(=O)Nc1ccc(S(N)(=O)=O)cc1 , state its recorded activity change, negative = inhibition.
Ans. 3.48% (inactive)

Qu. Given Cc1cccc(CNc2nc(-c3ccc(C(=O)N(C)C)cc3)nc3ccccc23)c1 , state its recorded activity change, negative = inhibition.
Ans. -29.6% (inactive)

Qu. Given N[C@H](C(=O)O)[C@@H](O)c1cnc[nH]1 , state its recorded activity change, negative = inhibition.
Ans. 6.1% (inactive)

Qu. Given Cc1cc(C)c2c(SCc3ccc(Cl)cc3Cl)nc(N)nc2n1 , state its recorded activity change, negative = inhibition.
Ans. 0.307% (inactive)

Qu. Given CN1CC[C@@]2(CCN3CCc4c(oc5ccccc45)[C@@H]3C2)N(C)C1=O , state its recorded activity change, negative = inhibition.
Ans. 18% [at 38 µM] (inactive)

Qu. Given O=C1C(=O)c2ccccc2C(O)=C1C(CCc1ccccc1)C1=C(O)c2ccccc2C(=O)C1=O , state its recorded activity change, negative = inhibition.
Ans. -6.25% (inactive)

Qu. Given N=C(N)c1ccc(/C=C\c2ccc(C(=N)N)cc2)cc1 , state its recorded activity change, negative = inhibition.
Ans. 0.27% (inactive)

Qu. Given CC(C)(C)NC[C@@H](O)c1ccc(O)c(CO)n1 , state its recorded activity change, negative = inhibition.
Ans. -2.07% (inactive)

Qu. Given O=C(O)CSc1cc(-c2ccccc2)nc2ccccc12 , state its recorded activity change, negative = inhibition.
Ans. 4.39% (inactive)

Qu. Given O=C(O)[C@@H]1[C@@H]2O[C@H]([C@@H](Br)[C@H]2Br)[C@H]1C(=O)O , state its recorded activity change, negative = inhibition.
Ans. 7.44% (inactive)

Qu. Given O=S(=O)(c1cnccc1N1CCN(CCO)CC1)N1CCCC1 , state its recorded activity change, negative = inhibition.
Ans. 7.47% (inactive)

Qu. Given O=C(O)[C@H]1CCc2ccc3ccccc3c2[C@H]1c1cccc2ccccc12 , state its recorded activity change, negative = inhibition.
Ans. -12.8% (inactive)

Qu. Given O=C(O)CCSC1=NCCN1 , state its recorded activity change, negative = inhibition.
Ans. 1.39% (inactive)

Qu. Given O=S(=O)(O)n1ccnc1 (tested in a mixture with another compound) , state its recorded activity change, negative = inhibition.
Ans. -2.09% (inactive)

Qu. Given O=c1ccn([C@@H]2O[C@@H](COP(=O)(O)OP(=O)(O)O)[C@H](O)[C@@H]2O)c(=O)[nH]1 , state its recorded activity change, negative = inhibition.
Ans. 4.38% [at 38 µM] (inactive)

Qu. Given O=C(O)CCNc1ccccc1C(=O)O , state its recorded activity change, negative = inhibition.
Ans. -0.595% (inactive)

Qu. Given Nc1nc2c(c(=O)[nH]1)CN(CCCN1CCOCC1)CN2 , state its recorded activity change, negative = inhibition.
Ans. 1.77% (inactive)

Qu. Given Nc1ccn([C@H]2O[C@@H](COP(=O)(O)O)[C@@H](O)[C@H]2O)c(=O)n1 , state its recorded activity change, negative = inhibition.
Ans. 5.49% (inactive)

Qu. Given O=C(O)C(Sc1ccc(Cl)cc1)Sc1ccc(Cl)cc1 , state its recorded activity change, negative = inhibition.
Ans. 0.225% (inactive)

Qu. Given CCN(CC)[C@@H](C)C(=O)N1c2ccccc2Sc2ccccc21 , state its recorded activity change, negative = inhibition.
Ans. 14.4% [at 38 µM] (inactive)

Qu. Given O=C(O)C(Cc1cccs1)C(=O)O , state its recorded activity change, negative = inhibition.
Ans. 7.58% (inactive)

Qu. Given O=C(O)C[C@H](Nc1ccccc1)C(=O)O , state its recorded activity change, negative = inhibition.
Ans. 0.63% (inactive)

Qu. Given N=C(N)C(N=Nc1ccccc1)C(=N)N (stereo not drawn) , state its recorded activity change, negative = inhibition.
Ans. 1.88% (inactive)

Qu. Given O=C(O)c1ccc(C(=O)O)c(C(=O)O)c1.[NH-][C@@H]1CCCC[C@@H]1[NH-].[Pt] , state its recorded activity change, negative = inhibition.
Ans. 0.428% (inactive)

Qu. Given O=C1COC(c2ccccc2O)=NN1CCCN1CCCC1 , state its recorded activity change, negative = inhibition.
Ans. 5.73% (inactive)

Qu. Given O=C(O)CCc1c2ccc(=O)c(O)c-2oc2c(O)c(O)ccc12 , state its recorded activity change, negative = inhibition.
Ans. 3.21% (inactive)

Qu. Given O=C(O)CSc1ccccc1C(=O)O , state its recorded activity change, negative = inhibition.
Ans. 9.97% (inactive)

Qu. Given Nc1ncnc2nc(N3CCN(CCO)CC3)[nH]c12 , state its recorded activity change, negative = inhibition.
Ans. 2.43% (inactive)

Qu. Given Nc1ccc(S(=O)(=O)NCCS(=O)(=O)O)cc1 , state its recorded activity change, negative = inhibition.
Ans. -2.08% (inactive)

Qu. Given Cn1c(=O)c2[nH]c(CCS)nc2n(C)c1=O , state its recorded activity change, negative = inhibition.
Ans. 3.25% (inactive)

Qu. Given N[C@@H](CSCc1ccc(I)cc1)C(=O)O , state its recorded activity change, negative = inhibition.
Ans. -1.51% (inactive)

====

test: S16 Schwann cell PMP22 intronic element beta-lactamase assay (AID 624044);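 note: 0% = DMSO and -100% = potassium clavulanate positive control; nearly all actives have a fitted effect of over 15% in size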
measurement.context: S16 rat Schwann cells, PMP22 element beta-lactamase FRET, 24 h; series mostly up to 38.3 µM
Results filed as inconclusive are left out. The source made the active and inactive calls. Calls come from the whole dose curve.
endpoint.label: outcome

Sample records with outcome:
C[C@]12CC[C@H]3c4ccc(O)cc4CC[C@@H]3[C@H]1CC[C@@H]2OC(=O)CCC1CCCC1: inactive
C=C1CC[C@H](O)C/C1=C/C=C1\CCC[C@]2(C)[C@@H]([C@H](C)CCCC(C)C)CC[C@@H]12: inactive
Cc1onc(-c2c(F)cccc2Cl)c1C(=O)N[C@@H]1C(=O)N2[C@H]1SC(C)(C)[C@H]2C(=O)O: inactive
N[C@H](COP(=O)(O)O)C(=O)O: inactive
CO/N=C(\C(=O)N[C@@H]1C(=O)N2C(C(=O)[O-])=C(C[N+]3(C)CCCC3)CS[C@@H]12)c1csc(N)n1: inactive
CC1(C)[C@@H]2CC[C@]1(C)[C@@H](OC(=O)CSC#N)C2: inactive
Cc1c(C(=O)O)c(O)cc2c1C(=O)c1c(O)c([C@H]3O[C@H](CO)[C@@H](O)[C@H](O)[C@H]3O)c(O)c(O)c1C2=O: inactive

Qu. Given C[C@@H]1C[C@H]2[C@H]3C[C@@H](F)C4=CC(=O)C=C[C@]4(C)[C@@]3(Cl)[C@@H](O)C[C@@]2(C)[C@@H]1C(=O)COC(=O)C(C)(C)C , state its recorded outcome.
Ans. inactive
